# System: goosegrass (Eleusine indica)
# assay-remarks: Test A1 preemergence, goosegrass
# Assay type: in vivo
# stated-conditions: 31 g ai/ha, 0 to 100 scale (0 no effect, 100 complete control)
readout-kind: Plant response rating, Goosegrass
Could you keep your reply to the number by itself?

Quick one: Plant response rating, Goosegrass for Cc1cc(C2CC2)c(C2=NOC3CCCC23)cc1N(COC(=O)C(C)(C)C)S(=O)(=O)C(F)(F)F (stereo not drawn) ?
20

Quick one: Plant response rating, Goosegrass for Cc1cc(C)c(N(COC(=O)C(C)(C)C)S(=O)(=O)C(F)(F)F)cc1N1CCC2(CCC(C(F)(F)F)CC2)C1=O (stereo not drawn) ?
0

Quick one: Plant response rating, Goosegrass for `Cc1c(C(=O)N2CCC(C)CC2)cc(N(COC(=O)C(C)(C)C)S(=O)(=O)C(F)(F)F)c(C)c1C` ?
0
